- Assay target: CYP2D6 (Homo sapiens)
- Sequence (P10635 whole entry): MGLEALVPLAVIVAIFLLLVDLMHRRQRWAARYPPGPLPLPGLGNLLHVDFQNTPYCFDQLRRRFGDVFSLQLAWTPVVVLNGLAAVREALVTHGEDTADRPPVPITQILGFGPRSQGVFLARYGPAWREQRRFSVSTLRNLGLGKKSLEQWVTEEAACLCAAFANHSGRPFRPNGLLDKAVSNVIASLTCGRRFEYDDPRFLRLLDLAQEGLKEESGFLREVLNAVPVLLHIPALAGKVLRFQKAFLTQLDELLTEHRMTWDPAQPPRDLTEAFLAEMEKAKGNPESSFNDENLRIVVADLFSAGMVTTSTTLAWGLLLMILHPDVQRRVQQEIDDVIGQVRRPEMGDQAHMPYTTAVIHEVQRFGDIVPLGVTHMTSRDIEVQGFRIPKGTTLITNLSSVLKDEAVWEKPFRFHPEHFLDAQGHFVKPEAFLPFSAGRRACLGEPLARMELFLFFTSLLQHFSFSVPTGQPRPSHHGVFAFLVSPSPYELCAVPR
- Assay text: in vitro
- Condition set: microsomes
Measured pKi of individual entries
Scale: negative log10 of molar concentration, which is what pKi denotes.

compound=COc1cc2[nH]c(C)c(-c3ccc(Oc4ccc(OC(F)(F)F)cc4)cc3)c(=O)c2cc1Cl metric=pKi val=5.30
compound="CN(C)C[c-]1cccc1CNc1ccnc2cc(Cl)ccc12.[Fe+2].c1cc[cH-]c1 (centres unmarked)" metric=pKi val=6.28

Value lookup for pKi; key = CC(C)(C)NCc1cc(Nc2ccnc3cc(Cl)ccc23)c2c(c1O)CCCC2 6.17

Requested read-out: pKi. Entry: CCN(CC)CCCNc1ccnc2cc(Cl)ccc12.Cl.Cl 5.08

Fill in: pKi of CC(C)(C)NCc1cc(C(C)(C)C)cc(-c2cnc(C(F)(F)F)c(F)c2)c1O is ___ 6.37

---

- Assay text: Ionization constants by potentiometric titration
- Assay type: physicochemical
- Condition set: aqueous solution (DMSO stock diluted 1:10 with water), basic pKa (B), mean ± SD, n = 3 titrations, read-out: Measured pKa
Classification field: enter met for pKa values not below 8, not met for values below it.

Record excerpt, results attached:
compound="CC(C)(N)CNC(=O)C[C@H]1CC[C@]2(CC1)OO[C@]1(O2)C2CC3CC(C2)CC1C3 [OZ277, Arterolane]" class_assignment=met
compound="CCc1nc(N)nc(N)c1-c1ccc(Cl)cc1 [Pyrimethamine]" class_assignment="not met"
compound="CS(=O)(=O)c1ccc(-c2cnc(N)c(-c3ccc(C(F)(F)F)nc3)c2)cc1 [MMV048]" class_assignment="not met"
compound="CC1(C)c2nc(-c3ccc(F)cc3)c(Nc3ccc(F)cc3)n2CCN1C(=O)CN [KAF156]" class_assignment=met
compound="CCNCc1cc(Nc2ccnc3cc(Cl)ccc23)ccc1O [Desethylamodiaquine]" class_assignment=met

Does CCN(CC)Cc1cc(Nc2ccnc3cc(Cl)ccc23)ccc1O [Amodiaquine] have a reported pKa of at least 8? not met

State whether the measured pKa reaches 8, counting equality as reaching it, for COc1cc(C)c2c(Oc3cccc(C(F)(F)F)c3)c(OC)cc(NC(C)CCCN)c2n1 (stereo not drawn) [Tafenoquine] met

Entry OC(c1cc(C(F)(F)F)nc2c(C(F)(F)F)cccc12)C1CCCCN1 (stereo not drawn) [Mefloquine] : is its pKa no less than 8? met

---

- Assay text: physchem
- Condition set: 37 °C, fassgf or other biorelevant, thermodynamic from solid
Metric: solubility (µg/mL)
Please give a number only; it is taken to be in µg/mL.

Item under review: C[C@H]1[C@H](OC(=O)CCC(=O)O)O[C@@H]2O[C@@]3(C)CC[C@H]4[C@H](C)CC[C@@H]1[C@@]24OO3 [Artesunate] . Reported solubility? 321

---

- Assay text: Solubility limited absorbable dose (SLAD) calculation with predicted human jejunal Peff
- Condition set: based on measured FaSSIF solubility
Metric: Ssi (estimated solubility in the small intestine)

Worked cases, answers included:
molecule="CC1(C)CC(O)(COc2ccc(C3CCC4(CC3)OOC3(O4)C4CC5CC(C4)CC3C5)cc2)CC(C)(C)N1 (centres unmarked)" val="1140 µg/mL"
molecule=Cc1cc(Nc2ccc(C(F)(F)F)nc2)n2nc(C(C)(F)F)nc2n1 val="93.0 µg/mL"
molecule=CCN(CC)CCCNc1ccnc2cc(Cl)ccc12.Cl.Cl val="> 2000 µg/mL"
molecule=CCc1nc(N)nc(N)c1OCCCOc1ccccc1CCC(=O)O.Cl val="408 µg/mL"

Please look at the following molecule next.
Query (molecule): O=C(NCCN1CCCC1)c1cc(-c2ccc(CN3CCOCC3)cc2)nc2ccc(F)cc12 ; field requested: Ssi (estimated solubility in the small intestine) > 3000 µg/mL

Sourced from paper PMC6941357
